Reference for the values: the supplement of paper PMC7244745

# Test system: Klebsiella pneumoniae ATCC 13882
# protocol: final OD630 (growth) after 24 h; higher = more bacterial growth; extreme values may be limits of the assay
# conditions: 0.1 mM
Where a name gives a salt, the structure may show the parent alone.
recorded_metric: final OD630

>>> df
                                    compound                         tested_on  recorded_metric  assay_value
 0                          NC=O [Formamide]  Klebsiella pneumoniae ATCC 13882      final OD630        0.513
 1           CC(=O)NO [Acetohydroxamic acid]  Klebsiella pneumoniae ATCC 13882      final OD630        0.479
 2                N[C@@H](Cc1c[nH]cn1)C(=O)O  Klebsiella pneumoniae ATCC 13882      final OD630        0.709
 3                                  CNC(N)=O  Klebsiella pneumoniae ATCC 13882      final OD630        0.418
 4        N#C[S-].[Na+] [Sodium thiocyanate]  Klebsiella pneumoniae ATCC 13882      final OD630        0.431
 5  O=S(=O)(O)SSS(=O)(=O)O [Sodium tetrathionate dihydrate]  Klebsiella pneumoniae ATCC 13882      final OD630        0.532
 6                                   NC(N)=S  Klebsiella pneumoniae ATCC 13882      final OD630         0.48
 7                                Oc1ccccc1O  Klebsiella pneumoniae ATCC 13882      final OD630        0.425
 8                                NCCNCCNCCN  Klebsiella pneumoniae ATCC 13882      final OD630        0.448
 9           NCCS [Cysteamine hydrochloride]  Klebsiella pneumoniae ATCC 13882      final OD630          0.5
10                                    OB(O)O  Klebsiella pneumoniae ATCC 13882      final OD630        0.437
11  CCOC(=O)[C@@H](N)CS [L-cysteine ethyl ester hydrochloride]  Klebsiella pneumoniae ATCC 13882      final OD630        0.547
12  [K+].[O]=[Mn](=[O])(=[O])[O-] [Potassium permanganate]  Klebsiella pneumoniae ATCC 13882      final OD630        0.444

* * *

This section presents molecules with their documented onset of ureolytic pH increase values.
# Test system: Klebsiella pneumoniae ATCC 13882
# protocol: onset of ureolytic pH increase; higher = more delayed ureolysis (inhibition)
# conditions: 10 mM
Where a name gives a salt, the structure may show the parent alone.
recorded_metric: onset of ureolytic pH increase (min)

                                    molecule  censoring_operator  assay_value
 0                    c1c[nH]cn1 [Imidazole]                   =          619
 1          O=S(O)(O)=S [Sodium thiosulfate]                   =          611
 2                O=C(O)C(=O)O [Oxalic acid]                   >          900
 3    O=S(O)S(=O)(=O)O [Potassium disulfite]                   >          900
 4               NS(=O)(=O)O [Sulfamic acid]                   >          900
 5                     CNC(N)=O [Methylurea]                   =          623
 6  C=C(CC)C(=O)c1ccc(OCC(=O)O)c(Cl)c1Cl [Ethacrynic acid]                   =            0
 7  O=S([O-])[O-].[Na+].[Na+] [Sodium sulfite]                   =          593
 8             CNC(=O)NC [N.N'-Dimethylurea]                   =            0
 9            Oc1ccc(Cl)cc1 [p-chlorophenol]                   >          900
10               CN1CC(=O)NC1=N [Creatinine]                   =          575
11           NCCS [Cysteamine hydrochloride]                   =          911
